# Test details: Trial B: pharmacokinetics following single and repeated doses in healthy young male subjects
# Type: in vivo, humans
# Setup conditions: male, human, in vivo, oral, 400 mg, last dose of 8-day repeated 400 mg o.d. eslicarbazepine acetate, n=6; read-out: Mean Cmax (%CV)
Test readout: Cmax (ng/mL)
Lab book: enter the figure in ng/mL, no units written.

Query NC(=O)N1c2ccccc2C[C@H](O)c2ccccc21 [eslicarbazepine] yields Cmax of 8800

---

# Test details: Trial B: pharmacokinetics following single and repeated doses in healthy young male subjects
# Assay type: in vivo, humans
# Setup conditions: male, human, in vivo, oral, 1800 mg, last dose of 8-day repeated 1800 mg o.d. eslicarbazepine acetate, n=6; read-out: Mean Cmax (%CV)
Test readout: Cmax (ng/mL)
Quick reminder: number only, in ng/mL, skip the unit.

Kindly note the recorded Cmax for NC(=O)N1c2ccccc2C[C@H](O)c2ccccc21 [eslicarbazepine] , which is 47700
